These entries and their values trace back to the Immune Epitope Database (IEDB).

# study system: HLA-B*15:01
# measurement notes: IEDB peptide-MHC binding, purified MHC/direct/fluorescence; filed as Kd, often an IC50 or EC50 that approximates it; bounds were set here for any values at or beyond the usual limits of such assays
# run conditions: source organism: Entamoeba histolytica HM-1:IMSS
measurement name: Kd

Need Kd of "DSFAKQPQW" , thanks.
≥ 20 µM

----------
# study system: HLA-B*57:01
# measurement notes: IEDB peptide-MHC binding, purified MHC/direct/fluorescence; filed as Kd, often an IC50 or EC50 that approximates it; bounds were set here for any values at or beyond the usual limits of such assays
# run conditions: source organism: Salmonella enterica subsp. enterica serovar Typhimurium
measurement name: Kd
Don't forget the unit after the value.

Form field: Kd recorded for "KSNGAQQWL" with HLA-B*57:01 (enter value)
2160 nM

----------
# study system: HLA-A*31:01
# measurement notes: IEDB peptide-MHC binding, purified MHC/competitive/radioactivity; filed as Kd, often an IC50 or EC50 that approximates it; bounds were set here for any values at or beyond the usual limits of such assays
# run conditions: source organism: Dengue virus 4 Philippines/H241/1956
Please provide measured pKd for the entries that follow.
Numbers only, as −log10 of the molar value.

Solved cases (2 shown):
• FTTNIWMKFR = 8.80
• ALLGKKKNPR = 6.45

Next:
Need pKd of "GVTATITPR" , thanks.
7.83

----------
# study system: HLA-B*15:01
# measurement notes: IEDB peptide-MHC binding, purified MHC/competitive/fluorescence; bounds were set here for any values at or beyond the usual limits of such assays
# run conditions: source organism: Zaire ebolavirus
measurement name: IC50 (µM)
One number for each entry, in µM.

Solved cases (2 shown):
• AFHKEGAFF = 1.88
• SQKGQHIEG = 46.5

Next:
Need IC50 of "QLREAATEA" , thanks.
62.1

----------
# study system: HLA-A*23:01
# measurement notes: IEDB peptide-MHC binding, purified MHC/direct/fluorescence; filed as Kd, often an IC50 or EC50 that approximates it; bounds were set here for any values at or beyond the usual limits of such assays
# run conditions: source organism: Rickettsia sibirica 246
measurement name: Kd (nM)
Answers are plain numbers, in nM.

Form field: Kd recorded for "MFSVYDYGF" with HLA-A*23:01 (enter value)
3

----------
# study system: HLA-B*07:02
# measurement notes: IEDB peptide-MHC binding, purified MHC/competitive/fluorescence; filed as Kd, often an IC50 or EC50 that approximates it; bounds were set here for any values at or beyond the usual limits of such assays
# run conditions: source organism: Influenza A virus
measurement name: Kd (nM)
Answers are plain numbers, in nM.

Need Kd of "YVKQNTLKL" , thanks.
71.8

----------
# study system: HLA-B*46:01
# measurement notes: IEDB peptide-MHC binding, purified MHC/competitive/fluorescence; filed as Kd, often an IC50 or EC50 that approximates it; bounds were set here for any values at or beyond the usual limits of such assays
# run conditions: source organism: Orthohantavirus tulaense
pKd: −log10 of the molar value.
measurement name: pKd

Form field: pKd recorded for "ILMARYMSK" with HLA-B*46:01 (enter value)
≤ 4.70

----------
# study system: HLA-B*58:01
# measurement notes: IEDB peptide-MHC binding, purified MHC/direct/fluorescence; filed as Kd, often an IC50 or EC50 that approximates it; bounds were set here for any values at or beyond the usual limits of such assays
# run conditions: source organism: Salmonella enterica
pKd: −log10 of the molar value.
measurement name: pKd

Need pKd of "LLQGVPFHV" , thanks.
≤ 4.70

----------
# study system: HLA-B*53:01
# measurement notes: IEDB peptide-MHC binding, purified MHC/competitive/radioactivity; filed as Kd, often an IC50 or EC50 that approximates it; bounds were set here for any values at or beyond the usual limits of such assays
# run conditions: source organism: Dengue virus 2 Jamaica/1409/1983
Please provide measured log10(Kd) for the entries that follow.
Recall that a logarithmic scale is used here: each number is log10 of Kd in nM.

Solved cases (5 shown):
* NAWKVSCTI | 1.56
* LPETLETLLL | 1.58
* MKITAEWLW | 3.04
* MTTEDMLAVW | 2.55
* EPPFGDSYII | 2.56

Need log10(Kd) of "FVEGVSGGSW" , thanks.
1.69

----------
# study system: HLA-B*54:01
# measurement notes: IEDB peptide-MHC binding, purified MHC/competitive/radioactivity; filed as Kd, often an IC50 or EC50 that approximates it; bounds were set here for any values at or beyond the usual limits of such assays
# run conditions: source organism: SARS coronavirus Tor2
measurement name: pKd
Answers are plain numbers, as −log10 of the molar value.

Need pKd of "SPLFLIVAA" , thanks.
8.60

----------
# study system: HLA-A*24:02
# measurement notes: IEDB peptide-MHC binding, purified MHC/direct/fluorescence; filed as Kd, often an IC50 or EC50 that approximates it; bounds were set here for any values at or beyond the usual limits of such assays
# run conditions: source organism: Influenza A virus (A/Hong Kong/507/97(H5N1))
measurement name: Kd

Need Kd of "KSCLPACVY" , thanks.
≥ 20 µM

----------
# study system: HLA-B*39:01
# measurement notes: IEDB peptide-MHC binding, purified MHC/competitive/fluorescence; filed as Kd, often an IC50 or EC50 that approximates it; bounds were set here for any values at or beyond the usual limits of such assays
# run conditions: source organism: Orthomarburgvirus marburgense
measurement name: Kd

Need Kd of "YLAPSYRNF" , thanks.
≥ 20 µM

----------
# study system: HLA-B*15:01
# measurement notes: IEDB peptide-MHC binding, purified MHC/competitive/fluorescence; filed as Kd, often an IC50 or EC50 that approximates it; bounds were set here for any values at or beyond the usual limits of such assays
# run conditions: source organism: Bacillus anthracis str. A0488
measurement name: Kd (nM)
Numbers only, in nM.

Need Kd of "VLQSAANMY" , thanks.
67.5

----------
Please provide measured Kd for the entries that follow.
# study system: HLA-B*44:02
# measurement notes: IEDB peptide-MHC binding, purified MHC/direct/fluorescence; filed as Kd, often an IC50 or EC50 that approximates it; bounds were set here for any values at or beyond the usual limits of such assays
# run conditions: source organism: Giardia lamblia ATCC 50803

Solved cases (3 shown):
- EFDNYRGTI: ≥ 20 µM
- HCIDKTPGL: ≥ 20 µM
- CYPRLWGVR: ≥ 20 µM

Next:
Need Kd of "KLADMSIYC" , thanks.
≥ 20 µM

----------
# study system: HLA-A*68:23
# measurement notes: IEDB peptide-MHC binding, purified MHC/competitive/fluorescence; filed as Kd, often an IC50 or EC50 that approximates it; bounds were set here for any values at or beyond the usual limits of such assays
# run conditions: source organism: Cryptosporidium parvum Iowa II
measurement name: pKd
Give bare numbers, as −log10 of the molar value.

Need pKd of "MQFPGSVGF" , thanks.
7.37

----------
# study system: HLA-A*03:01
# measurement notes: IEDB peptide-MHC binding, purified MHC/direct/fluorescence; filed as Kd, often an IC50 or EC50 that approximates it; bounds were set here for any values at or beyond the usual limits of such assays
# run conditions: source organism: Influenza A virus (A/swine/Bakum/5/95(H1N1))
measurement name: Kd

Need Kd of "RGINDRNFW" , thanks.
≥ 20 µM

----------
# study system: HLA-A*33:01
# measurement notes: IEDB peptide-MHC binding, purified MHC/competitive/radioactivity; filed as Kd, often an IC50 or EC50 that approximates it; bounds were set here for any values at or beyond the usual limits of such assays
# run conditions: source organism: Dengue virus 4 Dominica/814669/1981
measurement name: Kd
Don't forget the unit after the value.

Need Kd of "NSALTLHWFR" , thanks.
4.07 nM

----------
# study system: HLA-A*23:01
# measurement notes: IEDB peptide-MHC binding, purified MHC/competitive/radioactivity; filed as Kd, often an IC50 or EC50 that approximates it; bounds were set here for any values at or beyond the usual limits of such assays
# run conditions: source organism: Mammarenavirus machupoense
measurement name: Kd

Need Kd of "QCGDPSSFDY" , thanks.
≥ 28.8 µM

----------
# study system: HLA-B*48:01
# measurement notes: IEDB peptide-MHC binding, purified MHC/competitive/fluorescence; filed as Kd, often an IC50 or EC50 that approximates it; bounds were set here for any values at or beyond the usual limits of such assays
# run conditions: source organism: Vibrio vulnificus YJ016
pKd: −log10 of the molar value.
measurement name: pKd

Need pKd of "DEHPWQPML" , thanks.
≤ 4.70

----------
# study system: HLA-B*35:01
# measurement notes: IEDB peptide-MHC binding, purified MHC/competitive/radioactivity; filed as Kd, often an IC50 or EC50 that approximates it; bounds were set here for any values at or beyond the usual limits of such assays
# run conditions: source organism: Dengue virus 4 Philippines/H241/1956
Please provide measured Kd for the entries that follow.
Numbers only, in µM.

• FSMGLLCLTL = 3.07

Next:
Need Kd of "WHYDQENPY" , thanks.
1.56
